# protocol-notes: small-molecule microarray binders of probe aCHRDL2, primary screen, biochemical, biotinylated probe, 635/667 nm fluorescence (AID 1100)
# settings: higher = more signal
Entries and their composite z-score
Give the figure by itself; no unit, no explanation.

// sample "CO[C@H]1O[C@H](CO)[C@@H](OC(=O)Nc2ccc(C(F)(F)F)cc2)[C@H](OC(=O)Nc2ccccc2-c2ccccc2)[C@H]1OC(=O)Nc1ccccc1-c1ccccc1" , its composite z-score was 0.411

// sample C=CCC(OC(C)=O)[C@@H]1[C@@H](N(Cc2ccc(-c3ccccc3)cc2)C(=O)c2ccc(C)cc2)c2cc(OCCCO)ccc2N1C(=O)c1ccc2ccccc2c1 (stereo partly specified) , its composite z-score was -0.093

// sample COc1ccc(NN2C(C(O)c3ccc(OC)cc3)C=CC3C(=O)N(C4CCCCC4)C(=O)C32)cc1 (stereo unspecified) , its composite z-score was 0.501

// sample "COCCOC(=O)N1C(=O)[C@@]2(c3cc(C#Cc4ccc(OC)cc4)ccc31)[C@H](C(=O)N1CCCCCCC1)[C@H]1C(=O)O[C@H](c3ccccc3)[C@H](c3ccccc3)N1[C@@H]2c1ccccc1OCCO" , its composite z-score was 1.57

// sample "COc1ccc([Si](C)(C)[C@H]2[C@H](CCn3cc([C@H](O)c4ccccc4)nn3)O[C@@]3(C(=O)N(C)c4c(Br)cc(C)cc43)[C@@H]2C)cc1" , its composite z-score was 0.387

// sample "C[C@]1(C(=O)NCC(F)(F)F)c2ccccc2C(=O)N(Cc2ccc(OC(F)(F)F)cc2)[C@H]1c1ccc(CO)cc1" , its composite z-score was 0.0314

* * *

# protocol-notes: E. coli acrAB mutant growth effects, primary screen, E. coli filamentation inducers, strain DRC39, OD650, 24 h (AID 1178);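 also: growth measured as culture turbidity by optical density at 650 nm; test concentration not given here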
# settings: higher = more signal, called active from +8 up or from −8 down
experimental-readout: z-score
Give the figure by itself; no unit, no explanation.

{"compound": "C=CC[C@@]1(C(=O)O)N=C(c2ccc(OCCCO)cc2)O[C@@H]1c1ccccc1CN=[N+]=[N-]", "quantitative-readout": 0.8}
{"compound": "C=C(COC)/C(=C/C[C@H](OC(=O)c1ccncc1)c1cccc(OCCO)c1)c1cnc2ccccc2c1", "quantitative-readout": -0.259}
{"compound": "COCCOC(=O)N1C(=O)[C@@]2(c3cc(C#Cc4ccc(OC)cc4)ccc31)[C@H](C(=O)N1CCCCCCC1)[C@H]1C(=O)O[C@H](c3ccccc3)[C@H](c3ccccc3)N1[C@@H]2c1ccccc1OCCO", "quantitative-readout": -0.609}
{"compound": "CC(C)[C@@H](C(=O)O)n1cc(-c2ccccc2)nn1", "quantitative-readout": 0.0178}
{"compound": "[N-]=[N+]=NCc1ccccc1C[C@]1(C(=O)NCc2ccccc2)N=C(c2ccc(OCCCO)cc2)O[C@H]1c1ccccc1CN=[N+]=[N-]", "quantitative-readout": 3.04}
{"compound": "COCCOC(=O)N1C(=O)[C@@]2(c3cc(C#CCNC(N)=O)ccc31)[C@H](C(=O)NC[C@H](O)c1ccccc1)[C@H]1C(=O)O[C@H](c3ccccc3)[C@H](c3ccccc3)N1[C@@H]2c1ccc(OCCO)cc1", "quantitative-readout": -0.0238}
{"compound": "C[N+](C)(C)CCCCCCNC(=O)[C@@H]1C[C@@H]2C(=O)N[C@@H](Cc3ccccc3)C(=O)N2[C@@H]1c1ccc(O)cc1", "quantitative-readout": 0.457}
{"compound": "C=CCC(OC(C)=O)[C@@H]1[C@@H](N(Cc2ccc(-c3cccc(C(F)(F)F)c3)o2)C(=O)c2cccc3ccccc23)c2cc(OCCCO)ccc2N1C(=O)c1ccc2ccccc2n1 (some centres undefined)", "quantitative-readout": 0.249}

// sample "CCCCNC(=O)c1ccc(C#C[Si](C)(C)C)c(OC(C)=O)c1" , its z-score was 1.17

// sample "CCCCC=C[C@@H](NC(=O)c1ccc(C(F)(F)F)cc1)c1ccccc1" , its z-score was -0.244

// sample CC(C)C[C@@H]1NC(=O)[C@@]23C(=O)N[C@@H](Cc4ccccc4)C2[C@H](C)[C@@]2(C)O[C@H]2C3/C=C/C/C=C\CNC(=O)[C@@H](CC(C)C)NC1=O (some centres undefined) , its z-score was 0.495

// sample C[C@@H](OCc1ccccc1)C1NC(=O)[C@@]23C(=O)N[C@@H](Cc4ccccc4)C2[C@H](C)[C@@]2(C)O[C@H]2C3/C=C/C/C=C\CNC(=O)[C@H](Cc2ccccc2)NC1=O (some centres undefined) , its z-score was 2.13

// sample CC(C)N1CC=CC23O[C@@H]4C=CCCOC(=O)C4[C@H]2C(=O)N(CCCCCO)[C@@H]3C1=O (some centres undefined) , its z-score was 1.01

// sample "C=C(COC)/C(=C/C[C@H](OC(=O)c1ccncc1)c1ccc(OCCO)cc1)c1cc(C(=O)OC)ccc1OC" , its z-score was -0.0988

From: PubChem BioAssay
